Target: pmGAC (Zif268-C7 finger 2 variant) finger 2 helix -2 to 6 = SDPGNLVR in Zif268-C7 (synthetic) (UniProt P08046)
Assay: EMSA
Details: [none]
pKd: −log10 of the molar value.
readout.name: pKd

sequence_content="GGACGCGTCCGCGGGTTTTCCCGCGGACGCGTCC [F2 site GAC]" readout_name=pKd numeric_result=8.52
sequence_content="GGACGCGGCCGCGGGTTTTCCCGCGGCCGCGTCC [F2 site GCC]" readout_name=pKd numeric_result=7.05

---

Target: pGCC (Zif268-C7 finger 2 variant) finger 2 helix -2 to 6 = SDCRDLAR in Zif268-C7 (synthetic)
Test: EMSA
Conditions: [none]
pKd: −log10 of the molar value.
readout.name: pKd

sequence_content="GGACGCGGCCGCGGGTTTTCCCGCGGCCGCGTCC [F2 site GCC]" numeric_result=7.10

Data origin: patent US20030186841
